test system: Echinochloa crus-galli (ECHCG); assay: Pre-emergence glasshouse herbicide test; assay type: in vivo; conditions: PRE Application, 1000 g/h, after 13 days
# percentage damage caused to the plant, ECHCG per entry

Use these answered entries as a reference point.
Cn1nnnc1NC(=O)c1nc2cccnc2n(C)c1=O [Compound 4.001]	4 (4=60-79%)
CCn1c(=O)c(C(=O)Nc2nnnn2C)cc2cnccc21 [Compound 2.003]	1 (1=0-19%)
Cn1nnnc1NC(=O)c1nc2ccc(Cl)cc2n(-c2ccccc2)c1=O [Compound 5.008]	2 (2=20-39%)
Cn1nnnc1NC(=O)c1nc2ccc(C(F)(F)F)cc2n(-c2ccccc2)c1=O [Compound 5.006]	4 (4=60-79%)
Cn1nnnc1NC(=O)c1nc2ccccc2n(-c2ccc3ccccc3c2)c1=O [Compound 5.031]	1 (1=0-19%)

Item: Cn1nnnc1NC(=O)c1cc2ccccc2n(-c2ccsc2)c1=O [Compound 7.002] | percentage damage caused to the plant, ECHCG: 1 (1=0-19%)

percentage damage caused to the plant, ECHCG for Cn1nnnc1NC(=O)c1nc2ccccc2n(-c2cccc(F)c2)c1=O [Compound 5.018] is 5 (5=80-100%)

Note to self: percentage damage caused to the plant, ECHCG recorded for Cc1cccc(-n2c(=O)c(C(=O)Nc3nnnn3C)nc3ccccc32)n1 [Compound 5.003] was 5 (5=80-100%)

Note to self: percentage damage caused to the plant, ECHCG recorded for Cn1nnnc1NC(=O)c1nc2ccccc2n(-c2cccc(C#N)c2)c1=O [Compound 5.021] was 5 (5=80-100%)

Taken from patent US9179678B2.
